System: SK-MEL-2 melanoma
ASSAY_INFO: NCI tumour cell line growth inhibition, 48 h
REPORTED_PROPERTY: TGI

// below: answered compounds
Cn1cc(C2=C(c3cccc(OCC(O)CO)c3)C(=O)NC2=O)c2ccccc21 (centres undefined) | > 25 µM
COc1ccc(OC)c2c1C(=O)C1CC1(Br)C2=O (centres undefined) | > 100 µM
C=C(C)C(O)C(O)c1c(OC)ccc2ccc(=O)oc12 (centres undefined) | > 100 µM

Query string: Tell me the measured TGI of NNC(=O)Cn1c2ccc(Br)cc2c2nc3ccccc3nc21 , please.
Result string: > 100 µM

* * *

Test system: DU-145 prostate
ASSAY_INFO: NCI tumour cell line growth inhibition, 48 h
REPORTED_PROPERTY: TGI

CCN(C(=S)N[C@H](C(=O)N[C@@H](C)C(=O)OC)C(C)C)c1ccccc1 | > 100 µM
C/C=C(\C)C(=O)O[C@H]1C=CC(=O)O[C@@H]1CC[C@H](O)[C@H](C)O | > 100 µM

Okay, next one:
Query string: Please look up its TGI: C/C=C(/COC(C)=O)C(=O)OC1C=C(C=O)C(C)(C)C=C1C (stereo not drawn)
Result string: > 100 µM

* * *

Test system: SNB-19 CNS
ASSAY_INFO: NCI tumour cell line growth inhibition, 48 h
Hi there, I'd appreciate the recorded TGI for every entry that follows.

O=C(COc1ccc(/C=C2\Oc3ccccc3C2=O)cc1)Nc1nc2c(s1)CCCC2 | > 100 µM

Batch request: TGI per item, same order as input.
1. CC(=O)c1c(C(F)(F)F)n([O-])c2cc(Cl)c(Cl)cc2[n+]1=O
2. C/C(Nc1ccc(F)cc1)=C1/CCOC1=O
3. COc1ccc(C(=O)C(c2ccc(OC)cc2)C2(O)C(=O)Nc3c2ccc(Cl)c3C)cc1 (stereo not given)
4. Cc1ccccc1NC(=O)C(=O)CC(=O)c1c(C)n([O-])c2ccccc2[n+]1=O

Result string:
["2.27 µM", "> 100 µM", "> 100 µM", "> 100 µM"]

* * *

Please go through the items and note down their TGI.
Test system: SF-539 CNS
ASSAY_INFO: NCI tumour cell line growth inhibition, 48 h

Worked cases, answers included:
Nc1ncnc2c1nnn2C1CCC(CP(=O)(O)O)C1 (stereo not drawn) | > 100 µM
C[CH2][Sn]([CH2]C)([O]C(=O)C(OC(C)=O)c1ccccc1)[O]C(=O)C(OC(C)=O)c1ccccc1 (stereo not drawn) | 33 µM
C(CCCCc1nnc(N2CCCCC2)o1)CCCc1nnc(N2CCCCC2)o1 | > 100 µM
COc1cc2cc[n+]3c(C)c4cc(OC)c(OC)cc4c([O-])c3c2cc1OC | > 100 µM
COc1ccc(/C=C2\S/C(=N/Nc3nc(-c4ccccc4)cs3)NC2=O)cc1OC | 71.4 µM

For every item in the list below, what is its measured TGI?
1. C[C@H]1C[C@H]2[C@@H]3C(C)(C)O[C@]4(O)C(=O)[C@]5(O)[C@@H](C)CC[C@H]1[C@]25C(=O)[C@]34C
2. O=C1CC(S(=O)(=O)O)C=C1Nc1cccc(Cl)c1 (stereo not drawn)
3. COc1ccc(NC(C)=O)cc1N1C(=O)/C(=C\c2cc(OC)c(OC)c(OC)c2)SC1c1ccccc1 (stereo not drawn)
4. Nc1[nH]nc2nc(-c3cccs3)cc(C(F)(F)F)c12
5. CN(/N=C/c1cccc2cccnc12)c1ccccc1
6. C=C1C(=O)OC2C1C(OC(=O)/C(C)=C/C)CC(O)(CCl)C1C(O)C3OC3(C)C21O (stereo not drawn)
7. COc1ccc(/C=N/N=C(\N)NO)c(OC)c1
8. CC[N+]1(C)CCC(O)(c2ccc(Cl)c(Cl)c2)C(C(=O)c2ccc(Cl)c(Cl)c2)C1 (stereo not drawn)

Result string:
["> 100 µM", "> 100 µM", "> 100 µM", "> 25 µM", "> 100 µM", "> 50 µM", "> 100 µM", "> 10 µM"]

* * *

System: A498 renal
ASSAY_INFO: NCI tumour cell line growth inhibition, 48 h
REPORTED_PROPERTY: TGI (µM)
One number for each entry, in µM.

CC1=C(CO)C(=O)O[C@@H]([C@@H](C)[C@H]2CC[C@H]3[C@@H]4C[C@@H](O)[C@@]5(O)CC=CC(=O)[C@]5(C)[C@H]4CC[C@]23C)C1 | 39.5
OC(CCNCc1ccccc1)c1ccc2ccccc2c1 (stereo not drawn) | 40
O=C(/C=C/c1ccc([N+](=O)[O-])cc1)c1ccc2c3c(cccc13)CC2 | 43.5

Please turn your attention to the following entry.
Query string: Data request, read-out TGI, for CC[C@H](CO)Nc1nc(NCc2ccccc2)n2ncc(C(C)C)c2n1
Result string: 3.44

* * *

System: U251 CNS
ASSAY_INFO: NCI tumour cell line growth inhibition, 48 h
REPORTED_PROPERTY: TGI

Each of the following entries comes with a recorded value; kindly state TGI for each.
1. COc1c(O)cc(O)c2c(=O)cc(-c3ccccc3)oc12
2. COc1cc2cc[n+]3c(C)c4cc(OC)c(OC)cc4c([O-])c3c2cc1OC
3. NC(=O)c1c(NC(=O)c2ccc3c(c2)OCO3)sc2c1CCC(=O)C2
4. NC(=S)N/N=C/c1ncccc1N
5. O=CN/C=C/c1ccc(O)c(O)c1
6. CC[C@H](CO)Nc1nc(NCc2ccccc2)n2ncc(C(C)C)c2n1
7. S=C1SCN(Cc2ccco2)CN1c1ccc(Br)cc1

Result string:
1: > 100 µM; 2: > 100 µM; 3: > 100 µM; 4: > 100 µM; 5: > 100 µM; 6: 10.5 µM; 7: 57.9 µM

* * *

Please respond with reported TGI for every item in the list.
System: HCT-116 colon
ASSAY_INFO: NCI tumour cell line growth inhibition, 48 h

COc1ccccc1Cc1nc(-c2ccccc2)nn(C2OC(COC(C)=O)C(OC(C)=O)C(OC(C)=O)C2OC(C)=O)c1=S (centres undefined) | > 45.9 µM

For every item below, please supply its TGI.
1. CCOc1ccccc1N=Nc1c(C)[nH]n(-c2nc(-c3ccccc3)cs2)c1=O
2. CCOC(=O)c1nc2ccc(C(F)(F)F)cc2nc1Oc1cc(OC)cc(OC)c1

Result string:
> 100 µM
> 100 µM

Query string: Which TGI value belongs to Cc1cn(Cc2cnnn2CC2OC(n3cc(C)c(=O)[nH]c3=O)CC2O)c(=O)[nH]c1=O (centres undefined) ?
Result string: > 100 µM

* * *

Record form. Attribute: TGI. Fill in for each entry.
System: HOP-92 NSCLC
ASSAY_INFO: NCI tumour cell line growth inhibition, 48 h

[N-]=[N+]=NC(CI)c1cn([C@H]2C[C@H](O)[C@@H](CO)O2)c(=O)[nH]c1=O (stereo partly drawn) | > 100 µM
COc1ccc2c(c1)C(=O)c1c-2c(N(C)C)nc2ccccc12 | > 100 µM

Please examine the following record next.
Query string: Please state recorded TGI (tested on HOP-92 NSCLC) of CC1=C(CO)C(=O)O[C@@H]([C@@H](C)[C@H]2CC[C@H]3[C@@H]4C[C@@H](O)[C@@]5(O)CC=CC(=O)[C@]5(C)[C@H]4CC[C@]23C)C1
Result string: > 100 µM

* * *

System: IGROV1 ovarian
ASSAY_INFO: NCI tumour cell line growth inhibition, 48 h
REPORTED_PROPERTY: TGI

// below: answered compounds
COc1ccc(C(=O)C(c2ccc(OC)cc2)C2(O)C(=O)Nc3c2ccc(Cl)c3C)cc1 (stereo not drawn) | > 100 µM
Cc1cccc(C(C)C)c1NC(=O)CC1C(=O)Nc2ccccc2S1(=O)=O (stereo not drawn) | > 51 µM

Let's switch to this compound now.
Query string: I have this compound here, COC(=O)C(Cc1ccccc1)NP(=O)(O)OCC1OC(n2cc(F)c(=O)[nH]c2=O)CC1O (stereo not drawn) , and I need its recorded TGI.
Result string: > 100 µM

* * *

Tested on: K-562 leukemia
ASSAY_INFO: NCI tumour cell line growth inhibition, 48 h
REPORTED_PROPERTY: TGI

Examples with their reported TGI follow.
Nc1ccccc1CC(O)C(=O)O (stereo unspecified) | > 100 µM
O=S1(=O)OCCOS(=O)(=O)C1Cc1ccccc1 | > 100 µM
C[C@H]1C[C@H]2[C@@H]3C(C)(C)O[C@]4(O)C(=O)[C@]5(O)[C@@H](C)CC[C@H]1[C@]25C(=O)[C@]34C | > 100 µM
Nc1[nH]nc2nc(-c3cccs3)cc(C(F)(F)F)c12 | > 25 µM
COc1ccc(OC)c(NC(=O)CCC/C(CC(=O)c2ccc(O)c(OC)c2)=N\Nc2ccc([N+](=O)[O-])cc2)c1 | > 100 µM

I'm hoping you can list TGI for every molecule here, please.
1. O=[N+]([O-])c1cccc([As]=[As]c2cccc([N+](=O)[O-])c2)c1 (stereo unspecified)
2. Cc1ccc(Nc2nc(C)c(C(/C=C/c3ccc(/C=C/C(=N/NC(=O)C[n+]4ccccc4)c4sc(Nc5ccc(C)cc5[N+](=O)[O-])nc4C)cc3)=N\NC(=O)C[n+]3ccccc3)s2)c([N+](=O)[O-])c1
3. COc1cc(C(=O)NC2CCN(C)CC2)c(F)cc1Nc1ncc2c(n1)N(C1CCCC1)CC(F)(F)C(=O)N2C

Result string:
["0.106 µM", "> 100 µM", "4 µM"]
